Give GI50 for every item shown.

Item CONC(=O)c1ccc(CNC(=O)OCc2cccs2)cc1 [Example 43] ; assay system HCT116; GI50 reported as > 100 µM

# GI50 measured on HCT116 for item O=C(NCc1ccc(C(=O)Nc2nnc(C(F)(F)F)s2)cc1)OCc1nccs1 [Example 64] = > 100 µM

GI50 for HCT116 with input O=C(NCc1ccc(C(=O)NCCO)cc1)OCc1cccs1 [Example 61] equals > 100 µM
